The reported numbers originate from the supplement of paper PMC10307832.

- System: H3255
- experiment_summary: relative viability (nuclei count vs DMSO), 5 days (fraction); higher = more cells survive
- run_parameters: first compound 0.1 µM
Below, each entry is listed alongside its reported relative viability.

The following compounds have reported results that may help.
* NC(=O)Nc1cc(-c2cccc(F)c2)sc1C(=O)N[C@H]1CCCNC1 [AZD7762] + Nc1nc2[nH]cc(CCc3ccc(C(=O)N[C@@H](CCC(=O)O)C(=O)O)cc3)c2c(=O)[nH]1 [Pemetrexed] (partner 0.2 µM) | 0.573
* NC(=O)Nc1cc(-c2cccc(F)c2)sc1C(=O)N[C@H]1CCCNC1 [AZD7762] + Cc1nc(Nc2ncc(C(=O)Nc3c(C)cccc3Cl)s2)cc(N2CCN(CCO)CC2)n1 [Dasatinib] (partner 0.075 µM) | 0.44
* NC(=O)Nc1cc(-c2cccc(F)c2)sc1C(=O)N[C@H]1CCCNC1 [AZD7762] + C[C@@H](Oc1cc(-c2cnn(C3CCNCC3)c2)cnc1N)c1c(Cl)ccc(F)c1Cl [Crizotinib] (partner 1 µM) | 0.891
* NC(=O)Nc1cc(-c2cccc(F)c2)sc1C(=O)N[C@H]1CCCNC1 [AZD7762] + CCNC(=O)c1noc(-c2cc(C(C)C)c(O)cc2O)c1-c1ccc(CN2CCOCC2)cc1 [Luminespib] (partner 0.01 µM) | 0.975
* NC(=O)Nc1cc(-c2cccc(F)c2)sc1C(=O)N[C@H]1CCCNC1 [AZD7762] + O=C(CCCCCCC(=O)Nc1ccccc1)NO [Vorinostat] (partner 1 µM) | 0.809

Input line: Report relative viability for NC(=O)Nc1cc(-c2cccc(F)c2)sc1C(=O)N[C@H]1CCCNC1 [AZD7762] + Cc1nc(NC(=O)N2CCC[C@H]2C(N)=O)sc1-c1ccnc(C(C)(C)C(F)(F)F)c1 [Alpelisib] (partner 2 µM) please.
Output line: 0.634
